// provenance: ChEMBL document CHEMBL1961873

target: Ephrin type-A receptor 3 (Homo sapiens); settings: at 1 µM;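 also: mean inhibition value reported from the GSK PKIS kinase profiling screen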
attributeMeasured: inhibition (%)
Give the number; % is assumed, so skip it.

[[record]]
samplesmiles = "CCS(=O)(=O)c1ccc(OC)c(Nc2ncc(-c3cccc(F)c3)o2)c1"
valuereported = 17

[[record]]
samplesmiles = "FC(F)(F)CNc1nccc(-c2cnn3ncccc23)n1"
valuereported = 4.73

[[record]]
samplesmiles = "Fc1ccc(Nc2nccc(-c3c(-c4ccc(C(F)(F)F)cc4)nn4ncccc34)n2)cc1F"
valuereported = 3.84

[[record]]
samplesmiles = "COc1cccc(-n2ncc3c(N/N=C/c4ccc(C(=O)NCCN(C)C)cc4)ncnc32)c1"
valuereported = 6.35

[[record]]
samplesmiles = "CCn1c(-c2nonc2N)nc2cncc(C(=O)NCCNC)c21"
valuereported = 5.09

[[record]]
samplesmiles = "NS(=O)(=O)c1cccc(N/C=C2\\C(=O)Nc3ccccc32)c1"
valuereported = 3.78

[[record]]
samplesmiles = "CCCNc1cccc(-n2ncc3c(N/N=C/c4ccncc4)ncnc32)c1"
valuereported = 3.12

[[record]]
samplesmiles = "CNC(=O)c1ncccc1Nc1nc(Nc2cc3c(cc2OC)CCCN3C(=O)CN(C)C)nc2[nH]ccc12"
valuereported = 5.06


Entry under review: `COc1cc(N2CCN(C(C)C)CC2)ccc1Nc1nc(Nc2cccc3ncccc23)c2cc[nH]c2n1` . Reported inhibition?
3.49

Entry under review: `Cc1c2ccc(N(C)c3ccnc(Nc4cccc(S(N)(=O)=O)c4)n3)cc2nn1C` . Reported inhibition?
2.97

Entry under review: `O=C(O[C@H]1CN[C@H](C#Cc2cc3ncnc(Nc4ccc5c(cnn5Cc5ccccc5)c4)c3s2)C1)N1CCOCC1` . Reported inhibition?
0.9

Entry under review: `NS(=O)(=O)c1ccc(N/N=C2\C(=O)Nc3ccc(C(=O)NCc4ccncc4)cc32)cc1` . Reported inhibition?
3.58

* * *

inhibition for assorted molecules
biological target: cAMP-dependent protein kinase catalytic subunit PRKX (Homo sapiens) (UniProt P51817); settings: at 1 µM;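 also: each value is the mean percent inhibition of the kinase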
Sequence (P51817 whole entry): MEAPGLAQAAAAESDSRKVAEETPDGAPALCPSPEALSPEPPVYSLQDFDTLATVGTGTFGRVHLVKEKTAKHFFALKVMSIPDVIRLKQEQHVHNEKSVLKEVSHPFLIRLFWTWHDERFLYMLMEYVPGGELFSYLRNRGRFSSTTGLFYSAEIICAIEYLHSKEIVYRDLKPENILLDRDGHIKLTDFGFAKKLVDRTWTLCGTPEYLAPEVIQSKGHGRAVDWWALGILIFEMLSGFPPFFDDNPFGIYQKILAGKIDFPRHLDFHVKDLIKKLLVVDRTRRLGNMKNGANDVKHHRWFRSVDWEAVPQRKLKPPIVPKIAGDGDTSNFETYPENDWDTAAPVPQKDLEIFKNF
Give the number; % is assumed, so skip it.

Recorded inhibition, per entry:
[[record]]
molecule = "N#Cc1cccc(Nc2ncc(-c3ccccc3)o2)c1"
valuereported = 2.62

[[record]]
molecule = "CCS(=O)(=O)c1ccc(OC)c(Nc2ncc(-c3cccc(C(C)=O)c3)o2)c1"
valuereported = 3.12

[[record]]
molecule = "Fc1cccc(COc2ccc(Nc3ncncc3C#Cc3ccccc3)cc2Cl)c1"
valuereported = 5.39

[[record]]
molecule = "COc1ccccc1-c1cc(/C=C2\\C(=O)Nc3ncc(Br)cc32)cc(Br)c1O"
valuereported = 0.16

[[record]]
molecule = "CNC(=O)c1ncccc1Nc1nc(Nc2cc3c(cc2OC)CCCN3C(=O)CN(C)C)nc2[nH]ccc12"
valuereported = 1.14


Entry under review: `COc1ccc(Nc2ncc(-c3ccccc3)o2)cc1OC` . Reported inhibition?
-0.56

Entry under review: `CC(C)c1ccc(-c2cc(-c3c[nH]nc3-c3ccccn3)ccn2)cc1` . Reported inhibition?
-0.45

Entry under review: `c1ccc(-c2n[nH]cc2-c2ccnc(-c3ccc(OCCn4ccnc4)cc3)c2)nc1` . Reported inhibition?
7.66

Entry under review: CC1=C(C(=O)Nc2ccc3[nH]ncc3c2)C(c2ccc(F)cc2)N=C(c2ccc(C(F)(F)F)nc2)N1 (stereo not given) . Reported inhibition?
23.6

Entry under review: `CCn1c(-c2nonc2N)nc2cncc(C(=O)NCCNC)c21` . Reported inhibition?
63.9

* * *

target: Serine/threonine-protein kinase PAK 1 (Homo sapiens); conditions: at 1 µM;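 also: reported values are mean percent inhibition of PAK1 activity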
inhibition for assorted compounds
Give the number; % is assumed, so skip it.

Recorded inhibition, per entry:
[[record]]
samplesmiles = "O=C(Nc1n[nH]c2nnc(-c3cccnc3)cc12)C1CC1"
valueunits = "%"
valuereported = 2.67

[[record]]
samplesmiles = "CCS(=O)(=O)c1ccc(OC)c(Nc2ncc(-c3cccc(F)c3)o2)c1"
valueunits = "%"
valuereported = 11.2

[[record]]
samplesmiles = "NS(=O)(=O)c1cccc(N/C=C2\\C(=O)Nc3ccccc32)c1"
valueunits = "%"
valuereported = 8.78

[[record]]
samplesmiles = "O=C(O[C@H]1CN[C@H](C#Cc2cc3ncnc(Nc4ccc5c(cnn5Cc5ccccc5)c4)c3s2)C1)N1CCOCC1"
valueunits = "%"
valuereported = 0.73

[[record]]
samplesmiles = "O=C(O[C@H]1CN[C@H](C#Cc2cc3ncnc(Nc4ccc(OCc5cccc(F)c5)c(Cl)c4)c3s2)C1)N1CCOCC1"
valueunits = "%"
valuereported = 7.32


Entry under review: `CCOc1ccc2c(-c3ccnc(Nc4cc(OC)cc(C(F)(F)F)c4)n3)cnn2n1` . Reported inhibition?
0.59

* * *

target: Receptor-type tyrosine-protein kinase FLT3 (Homo sapiens); conditions: at 0.1 µM;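 also: mean inhibition value from the GSK PKIS kinase screening set, with the assay run by Nanosyn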
attributeMeasured: inhibition (%)
Give the number; % is assumed, so skip it.

[[record]]
molecule = "CCN1CCC(C(=O)Nc2n[nH]c3nnc(-c4cccc(F)c4F)cc23)CC1"
attributemeasured = "inhibition"
valueunits = "%"
valuereported = 1.71


Entry under review: `O=C(O[C@H]1CN[C@H](C#Cc2cc3ncnc(Nc4ccc5c(ccn5Cc5cc(F)ccc5F)c4)c3s2)C1)N1CCOCC1` . Reported inhibition?
1.02

* * *

molecular target: Non-receptor tyrosine-protein kinase TNK1 (Homo sapiens); details: at 0.1 µM;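 also: reported values are mean inhibition figures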
attributeMeasured: inhibition (%)
Give the number; % is assumed, so skip it.

Recorded inhibition, per entry:
[[record]]
compound = "c1cnn2ncc(-c3ccnc(NCCCN4CCOCC4)n3)c2c1"
attributemeasured = "inhibition"
valueunits = "%"
valuereported = 1.04

[[record]]
compound = "O=C(O[C@H]1CN[C@H](C#Cc2cc3ncnc(Nc4ccc(OCc5cccc(F)c5)c(Cl)c4)c3s2)C1)N1CCOCC1"
attributemeasured = "inhibition"
valueunits = "%"
valuereported = 4.45

[[record]]
compound = "O=C(Nc1n[nH]c2nnc(-c3cccnc3)cc12)C1CC1"
attributemeasured = "inhibition"
valueunits = "%"
valuereported = -1.13


Entry under review: `COc1cc2c(cc1Nc1nc(Nc3cccc(F)c3C(N)=O)c3cc[nH]c3n1)N(C(=O)CN1CCN(C(C)C)CC1)CC2` . Reported inhibition?
3.48

Entry under review: `CN(c1ccc(NC(=O)NCCN2CCOCC2)cc1)c1ccnc(Nc2ccc(CS(C)(=O)=O)cc2)n1` . Reported inhibition?
15.5

Entry under review: `COC(=O)Nc1nc2cc(Oc3ccc(NC(=O)Nc4ccccc4)cc3)ccc2[nH]1` . Reported inhibition?
2.64

* * *

inhibition for assorted molecules
biological target: Insulin receptor-related protein (Homo sapiens) (UniProt P14616); settings: at 1 µM;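 also: each reported figure is the mean of the IRR inhibition readings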
Sequence (P14616 27-742 limits assumed): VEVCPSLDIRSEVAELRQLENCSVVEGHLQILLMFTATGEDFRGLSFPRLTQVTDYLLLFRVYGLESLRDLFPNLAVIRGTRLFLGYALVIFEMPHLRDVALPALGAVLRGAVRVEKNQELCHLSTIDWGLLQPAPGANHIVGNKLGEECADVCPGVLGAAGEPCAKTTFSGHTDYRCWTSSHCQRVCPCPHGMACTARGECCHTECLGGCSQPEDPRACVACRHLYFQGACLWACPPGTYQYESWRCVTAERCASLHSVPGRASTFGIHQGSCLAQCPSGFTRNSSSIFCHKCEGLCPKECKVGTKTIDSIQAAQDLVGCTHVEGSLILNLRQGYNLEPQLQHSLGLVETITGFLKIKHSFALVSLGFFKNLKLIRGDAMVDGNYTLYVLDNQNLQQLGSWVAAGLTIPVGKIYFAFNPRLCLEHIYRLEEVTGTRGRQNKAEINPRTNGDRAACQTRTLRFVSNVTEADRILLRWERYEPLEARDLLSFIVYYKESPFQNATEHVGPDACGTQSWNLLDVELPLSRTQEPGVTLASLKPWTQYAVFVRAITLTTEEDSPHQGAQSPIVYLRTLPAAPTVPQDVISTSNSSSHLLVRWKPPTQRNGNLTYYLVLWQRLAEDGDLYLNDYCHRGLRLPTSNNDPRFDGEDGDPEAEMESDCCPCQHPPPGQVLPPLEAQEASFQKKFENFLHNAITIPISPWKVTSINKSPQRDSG
Sequence (P14616 747-1297 limits assumed): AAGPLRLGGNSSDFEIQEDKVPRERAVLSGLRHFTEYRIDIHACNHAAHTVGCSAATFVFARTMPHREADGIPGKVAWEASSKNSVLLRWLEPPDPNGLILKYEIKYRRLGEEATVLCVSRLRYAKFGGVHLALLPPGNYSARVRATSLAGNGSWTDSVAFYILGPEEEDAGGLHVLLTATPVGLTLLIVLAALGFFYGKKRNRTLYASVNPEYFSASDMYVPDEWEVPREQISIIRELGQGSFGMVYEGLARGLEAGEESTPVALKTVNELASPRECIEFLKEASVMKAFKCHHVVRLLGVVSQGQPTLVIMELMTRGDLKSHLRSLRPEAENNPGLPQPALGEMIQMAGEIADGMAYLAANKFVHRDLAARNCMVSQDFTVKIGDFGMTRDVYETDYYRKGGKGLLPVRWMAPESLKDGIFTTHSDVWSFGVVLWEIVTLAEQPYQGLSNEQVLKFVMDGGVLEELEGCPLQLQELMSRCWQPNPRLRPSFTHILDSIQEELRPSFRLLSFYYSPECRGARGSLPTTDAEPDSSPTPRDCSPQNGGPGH
Give the number; % is assumed, so skip it.

Recorded inhibition, per entry:
[[record]]
samplesmiles = "CS(=O)(=O)Nc1ccc(-c2ccc3c(NC(=O)C4CC4)n[nH]c3c2)cc1"
attributemeasured = "inhibition"
valuereported = 2.41

[[record]]
samplesmiles = "CN1CCC(n2cnc(-c3ccc(F)cc3)c2-c2ccnc(NCCO)n2)CC1"
attributemeasured = "inhibition"
valuereported = 2.39

[[record]]
samplesmiles = "NC(=O)c1ccc2c(-c3ccnc(NCCCO)n3)c(-c3ccc(F)cc3)nn2c1"
attributemeasured = "inhibition"
valuereported = 4.01


Entry under review: `COC(=O)Nc1nc2ccc(Oc3ccc(NC(=O)Nc4cc(C(F)(F)F)ccc4F)cc3)cc2s1` . Reported inhibition?
-1.09

Entry under review: `COc1c(C(N)=O)cc(-c2ccc(Cl)cc2)cc1-c1ccc(S(N)(=O)=O)cc1` . Reported inhibition?
3.46

Entry under review: `CNC(=O)c1ncccc1Nc1nc(Nc2cc3c(cc2OC)CCCN3C(=O)CN(C)C)nc2[nH]ccc12` . Reported inhibition?
94.3

Entry under review: `O=C(Nc1n[nH]c2nnc(-c3cccnc3)cc12)C1CC1` . Reported inhibition?
-1.01

Entry under review: `COc1ccc2ncn(-c3cc(O[C@H](C)c4ccccc4C(F)(F)F)c(C(N)=O)s3)c2c1` . Reported inhibition?
-0.27

Entry under review: `COc1ccccc1-c1cc(/C=C2\C(=O)Nc3ncc(Br)cc32)cc(Br)c1O` . Reported inhibition?
1.02

* * *

Molecular target: Mitogen-activated protein kinase kinase kinase kinase 2 (Homo sapiens);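 also: reported value is a mean of MAP4K2 inhibition at 1 µM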
Sequence (whole entry): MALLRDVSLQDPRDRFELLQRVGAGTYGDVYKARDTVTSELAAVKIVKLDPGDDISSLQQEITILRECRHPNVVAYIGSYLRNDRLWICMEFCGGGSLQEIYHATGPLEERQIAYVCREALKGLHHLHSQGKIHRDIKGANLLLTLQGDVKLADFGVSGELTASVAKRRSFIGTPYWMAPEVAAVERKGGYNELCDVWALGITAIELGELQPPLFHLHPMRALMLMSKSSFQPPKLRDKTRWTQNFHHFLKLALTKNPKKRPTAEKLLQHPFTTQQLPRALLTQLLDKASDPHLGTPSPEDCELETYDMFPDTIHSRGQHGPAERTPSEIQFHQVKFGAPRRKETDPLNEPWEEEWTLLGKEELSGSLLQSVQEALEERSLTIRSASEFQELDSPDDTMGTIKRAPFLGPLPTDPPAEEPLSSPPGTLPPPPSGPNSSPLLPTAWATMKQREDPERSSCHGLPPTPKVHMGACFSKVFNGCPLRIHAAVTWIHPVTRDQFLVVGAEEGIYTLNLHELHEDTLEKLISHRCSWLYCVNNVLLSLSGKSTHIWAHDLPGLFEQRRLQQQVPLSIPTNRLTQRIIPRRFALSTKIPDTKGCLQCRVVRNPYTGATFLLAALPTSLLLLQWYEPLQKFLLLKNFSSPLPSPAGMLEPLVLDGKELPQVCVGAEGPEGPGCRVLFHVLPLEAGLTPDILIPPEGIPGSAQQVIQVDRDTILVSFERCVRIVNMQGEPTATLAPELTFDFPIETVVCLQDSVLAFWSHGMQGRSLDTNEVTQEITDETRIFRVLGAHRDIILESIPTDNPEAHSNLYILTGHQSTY
Conditions: at 1 µM
attributeMeasured: inhibition
Reply with the number and its unit after it.

Recorded inhibition, per entry:
[[record]]
compound = "COC(=O)Nc1nc2cc(Oc3ccc(NC(=O)Nc4ccccc4)cc3)ccc2[nH]1"
valuereported = "0.87%"

[[record]]
compound = "CCCNc1cccc(-n2ncc3c(N/N=C/c4ccncc4)ncnc32)c1"
valuereported = "3.57%"


Consider the record given below.
Entry under review: CC1=C(C(=O)Nc2ccc3[nH]nc(C)c3c2)C(c2ccc(C(F)(F)F)cc2)CC(=O)N1 (stereo not drawn) . Reported inhibition?
3.74%
